Test system: A498 renal
Assay: NCI-60 one-dose screen, 48 h (100 = growth as untreated, 0 = no growth, -100 = all killed)
Conditions: 10 µM unless noted
Description: Growth inhibition of the A498 human tumor cell line is measured as a screen for anti-cancer activity. Cells are grown in 96 well plates and exposed to the test compound for 48 hours. Compounds are tested at a single concentration, which is 10^-5 M for most compounds. The reported endpoint is percent growth (GI% or GIPRCNT), where numbers from 0 - 100% represent growth inhibition, and numbers from -100% - 0 represent cell death. For example, a value of 40 represents 60% growth inhibition. […]
The panel holds about 83,000 compounds, 20% with a hit somewhere; the sample as a whole holds those more often.
Task for the reader: assign each of the following molecules its reported growth.
Answers are plain numbers, in %.

Give growth for the following molecule: Brc1ccc(-c2csc(Nc3ccccn3)n2)cc1
91.3

Give growth for the following molecule: CC1=CC(C)(C)Nc2ccc(Cc3ccc4c(c3)C(C)=CC(C)(C)N4)cc21
109

Give growth for the following molecule: O=C(CN(C(=O)Cn1c(=O)n2nnnc2c2ccccc21)c1ccccc1C(F)(F)F)Nc1ccc(C(F)(F)F)cc1
116

Give growth for the following molecule: COc1ccc(CCNc2nc(SC)nc(-c3cccc([N+](=O)[O-])c3)c2C#N)cc1OC
94.8

Value sought for every listed molecule: growth.
1. NNCCc1ccc(NC(=O)CCCc2ccc(/C=C/C(=O)NO)cc2)cc1
2. NC(=NCCCC1(c2ccccc2)CCCC1)Nc1ccc(Cl)cc1
3. COc1ccc(C(=O)COc2ccc(/C=C3\COc4ccc(OC)cc4C3=O)cc2)cc1
4. Oc1cccc(-c2nc(N3CCOCC3)c3c4c(sc3n2)CCCC4)c1
5. C=CC(=O)Nc1cccc(-c2nc(SC)nc(NCCc3ccc(OC)c(OC)c3)c2C#N)c1

47
83.1
100
114
18.5

Give growth for the following molecule: Oc1cccc2ccc(N/N=C/c3cc(CN4CCOCC4)c(O)c4ncccc34)nc12
21.3

Values from PubChem BioAssay (NCI)
